tested.target: UniProt P28845
Sequence (P28845 whole entry): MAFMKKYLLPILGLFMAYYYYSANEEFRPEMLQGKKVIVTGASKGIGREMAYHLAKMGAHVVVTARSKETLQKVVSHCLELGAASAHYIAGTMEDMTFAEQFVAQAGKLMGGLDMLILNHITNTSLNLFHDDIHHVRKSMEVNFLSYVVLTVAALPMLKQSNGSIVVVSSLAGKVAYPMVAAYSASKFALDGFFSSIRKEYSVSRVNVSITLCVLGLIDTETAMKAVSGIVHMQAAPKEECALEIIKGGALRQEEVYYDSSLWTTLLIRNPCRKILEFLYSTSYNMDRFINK
measurement.notes: Inhibition of 11-β-HSD-1 enzyme assay (HTRF cortisol), human recombinant enzyme
reported.conditions: human recombinant enzyme expressed in E. coli; cortisone/NADPH 200 nM/200 μM; 150 minutes at 37° C.
measured.parameter: IC50
Write the numeric value and append its unit.

What measured IC50 goes with O=C(N1CCC2(c3c[nH]c4ncccc34)CC12)C1(c2ccc(Cl)cc2)CC1 (stereo not shown) ? 22 nM
